Cited source: patent US20260193264A1

Target: HiBit-BRG1 fusion protein in stable HeLa cell line expressing HiBit-BRG1 and LgBit (Homo sapiens, UniProt P51532)
Construct: expressed in transfected cells
Sequence (P51532 whole entry, the tested form may be a part): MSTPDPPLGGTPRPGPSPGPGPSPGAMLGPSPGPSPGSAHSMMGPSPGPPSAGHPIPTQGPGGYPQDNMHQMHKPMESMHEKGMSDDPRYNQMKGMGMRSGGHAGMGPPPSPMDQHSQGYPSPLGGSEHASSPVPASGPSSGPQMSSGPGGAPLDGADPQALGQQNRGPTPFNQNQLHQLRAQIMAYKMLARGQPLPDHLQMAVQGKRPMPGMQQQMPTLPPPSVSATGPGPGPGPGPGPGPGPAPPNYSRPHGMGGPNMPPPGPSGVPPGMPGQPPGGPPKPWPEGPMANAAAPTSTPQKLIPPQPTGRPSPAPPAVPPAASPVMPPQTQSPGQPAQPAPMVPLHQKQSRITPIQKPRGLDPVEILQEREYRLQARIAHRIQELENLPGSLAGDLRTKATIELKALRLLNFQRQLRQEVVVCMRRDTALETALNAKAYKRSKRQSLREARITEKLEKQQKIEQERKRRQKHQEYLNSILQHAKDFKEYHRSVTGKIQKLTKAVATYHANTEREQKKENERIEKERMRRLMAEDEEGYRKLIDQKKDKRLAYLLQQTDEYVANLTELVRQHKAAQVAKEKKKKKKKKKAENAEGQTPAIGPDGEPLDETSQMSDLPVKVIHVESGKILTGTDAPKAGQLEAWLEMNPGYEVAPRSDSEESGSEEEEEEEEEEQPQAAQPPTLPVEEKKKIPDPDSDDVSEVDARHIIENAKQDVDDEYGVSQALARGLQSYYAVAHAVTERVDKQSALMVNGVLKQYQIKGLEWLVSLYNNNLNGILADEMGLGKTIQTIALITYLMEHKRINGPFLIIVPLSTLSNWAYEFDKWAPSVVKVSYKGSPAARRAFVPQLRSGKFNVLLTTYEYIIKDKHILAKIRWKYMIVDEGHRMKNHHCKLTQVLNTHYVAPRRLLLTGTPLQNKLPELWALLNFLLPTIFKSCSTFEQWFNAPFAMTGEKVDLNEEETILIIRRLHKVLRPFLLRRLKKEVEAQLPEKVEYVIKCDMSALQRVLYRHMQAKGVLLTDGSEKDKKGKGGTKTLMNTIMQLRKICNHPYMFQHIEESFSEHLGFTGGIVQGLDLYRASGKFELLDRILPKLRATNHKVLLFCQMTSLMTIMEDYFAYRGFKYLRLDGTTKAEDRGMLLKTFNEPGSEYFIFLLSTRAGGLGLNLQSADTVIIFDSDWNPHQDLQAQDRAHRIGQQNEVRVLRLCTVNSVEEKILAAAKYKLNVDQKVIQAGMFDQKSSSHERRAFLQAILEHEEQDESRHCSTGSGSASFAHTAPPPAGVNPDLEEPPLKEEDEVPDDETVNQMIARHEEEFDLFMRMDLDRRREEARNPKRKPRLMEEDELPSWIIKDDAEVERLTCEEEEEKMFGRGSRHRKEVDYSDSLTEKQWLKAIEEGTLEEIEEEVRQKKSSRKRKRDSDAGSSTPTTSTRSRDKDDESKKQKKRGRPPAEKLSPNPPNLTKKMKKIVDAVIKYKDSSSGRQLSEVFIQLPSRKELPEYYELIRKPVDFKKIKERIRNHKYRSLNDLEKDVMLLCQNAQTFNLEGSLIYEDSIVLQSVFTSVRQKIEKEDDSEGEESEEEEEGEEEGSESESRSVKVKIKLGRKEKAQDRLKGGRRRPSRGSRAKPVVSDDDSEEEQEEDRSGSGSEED
Assay: HiBiT-BRG1 cell-based degradation assay (Nano-Glo HiBiT, 24 h)
Conditions: HeLa HiBit-BRG1/LgBit cells, top dose 30 μM, read-out: BRG1 HiBit Degradation Maximum (%)
Protocol: Procedure: A stable HeLa cell line expressing HiBiT-BRM was generated. On day 0, 5000 cells were seeded in 40 μL of media into each well of 384-well cell culture plates. […] The plates were shaken for 10 minutes at room temperature and the bioluminescence read using an EnVision plate reader (PerkinElmer). […] The degradation % was calculated using the following formula: % degradation=100%−100%×(Lumsample−LumLC)/(LumHC−LumLC). […]
recorded.endpoint: Dmax

Cc1ncsc1-c1ccc([C@H](C)NC(=O)[C@@H]2C[C@@H](O)CN2C(=O)[C@H](C(C)C)n2cnc(N3CC4(CN(c5ccc6cc(-c7ccccc7O)nnc6c5)C4)C3)n2)cc1 [Compound 267] : < 50%
Cc1ncsc1-c1ccc([C@H](C)NC(=O)[C@@H]2C[C@@H](O)CN2C(=O)C(C(C)C)n2cc(N3CCC34CN(c3ccc5nnc(-c6ccccc6O)cc5c3)C4)nn2)cc1 (stereo partly drawn) [Compound 276] : > 75%

Query molecule follows.
I am curious: what Dmax value has been reported for Cc1ncsc1-c1ccc([C@H](C)NC(=O)[C@@H]2C[C@@H](O)CN2C(=O)C(C(C)C)n2cc(N3CC4(CN(c5ccc6cc(-c7ccccc7O)nnc6c5)C4)C3)cn2)cc1 (stereo in doubt) [Compound 257] ?
< 50%

###

Below, each of the molecules is paired with its reported DC50 value.
biological target: HiBit-BRG1 fusion protein in stable HeLa cell line expressing HiBit-BRG1 and LgBit (Homo sapiens, UniProt P51532); construct: expressed in transfected cells; test: HiBiT-BRG1 cell-based degradation assay (Nano-Glo HiBiT, 24 h); settings: HeLa HiBit-BRG1/LgBit cells, read-out: BRMG1 HiBit Degradation IC50

I am curious: what DC50 value has been reported for Cc1ncsc1-c1ccc([C@H](C)NC(=O)[C@@H]2C[C@@H](O)CN2C(=O)[C@@H](c2cc(N3CCC4(CCN(c5ccc6cc(-c7ccccc7O)nnc6c5)CC4)CC3)no2)C(C)C)cc1 ?
< 10 nM

I am curious: what DC50 value has been reported for Cc1ncsc1-c1ccc([C@H](C)NC(=O)[C@@H]2C[C@@H](O)CN2C(=O)[C@H](C(C)C)n2cc(N3CC4(CN(c5ccc6nnc(-c7ccccc7O)cc6c5)C4)C3)nn2)cc1 ?
< 10 nM

I am curious: what DC50 value has been reported for Cc1ncsc1-c1ccc([C@H](C)NC(=O)[C@@H]2C[C@@H](O)CN2C(=O)[C@@H](c2cc(N3CCC(Oc4ccc5cc(-c6ccccc6O)nnc5c4)CC3)no2)C(C)C)cc1 ?
> 10 nM

###

target: HiBit-BRG1 fusion protein in stable HeLa cell line expressing HiBit-BRG1 and LgBit (Homo sapiens, UniProt P51532); construct: expressed in transfected cells; assay: HiBiT-BRG1 cell-based degradation assay (Nano-Glo HiBiT, 24 h); details: HeLa HiBit-BRG1/LgBit cells, top dose 30 μM, read-out: BRG1 HiBit Degradation Maximum (%)
Below, each of the compounds is paired with its reported Dmax value.

Before answering, review these 4 worked examples.
Cc1ncsc1-c1ccc([C@H](C)NC(=O)[C@@H]2C[C@@H](O)CN2C(=O)[C@@H](c2cc(N3C[C@]4(C)CN(c5ccc6cc(-c7ccccc7O)nnc6c5)C[C@]4(C)C3)no2)C(C)C)cc1 : > 75%
Cc1ncsc1-c1ccc(C(C)NC(=O)C2CC(O)CN2C(=O)[C@@H](c2cc(N3CCN([C@H]4CCN(Cc5cc6nnc(-c7ccccc7O)cc6cc5Cl)CC4(F)F)CC3)no2)C(C)C)cc1 (stereo in doubt) : < 50%
Cc1ncsc1-c1ccc([C@H](C)NC(=O)[C@@H]2C[C@@H](O)CN2C(=O)[C@H](C(C)C)n2cc(N3CCN4CCN(c5ccc6cc(-c7ccccc7O)nnc6c5)C[C@H]4C3)nn2)cc1 : > 75%
Cc1ncsc1-c1ccc([C@H](C)NC(=O)[C@@H]2C[C@@H](O)CN2C(=O)[C@@H](c2cc(N3CC4(CN(c5cc(C(F)F)c6cc(-c7ccccc7O)nnc6c5)C4)C3)no2)C(C)C)cc1 : < 50%

I am curious: what Dmax value has been reported for C#Cc1ccc(CNC(=O)[C@@H]2C[C@@H](O)CN2C(=O)[C@H](C(C)C)n2cc(N3CC4(CN(c5ccc6cc(-c7ccccc7O)nnc6c5)C4)C3)nn2)c(Cl)c1 ?
> 50%
